Could you please report measured viability for the items listed next?
# Assay Method Text: HUVEC growth inhibition – cell-based, human, primary screen (AID 575);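 also: 100% = median of untreated cell wells with 0.1% DMSO on each plate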
# Experimental Parameters: HUVEC proliferation, CellTiter-Glo luminescence, 72 h; at 10 µM; stronger effect = lower value
Active and inactive are the calls of the source.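 The calls were made as follows: active = viability at or below 30% in both replicate assays; inconclusive = viability at or below 30% in just one of the two assays; inactive = the rest.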

Which viability reading was recorded for the compound Cc1c(C(=O)NCc2ccccn2)sc2nc(-c3ccc(F)cc3)cn12 ? 89.4% (inactive)

Which viability reading was recorded for the compound C=CCN(CC=C)C(=O)c1ccncc1 ? 92.8% (inactive)

Which viability reading was recorded for the compound Cc1nc2ccc(C(=O)O)cc2c2c1CC(C)S2 (configuration not stated) ? 96.8% (inactive)

Which viability reading was recorded for the compound c1ccc(-c2n[nH]c3ccccc23)cc1 ? 84.9% (inactive)

Which viability reading was recorded for the compound CCN(CC)S(=O)(=O)c1ccc(NC(=O)Cn2cnc3ccccc3c2=O)cc1 ? 85.9% (inactive)

Which viability reading was recorded for the compound c1ccc(CSCc2cn3ccsc3n2)cc1 ? 104% (inactive)

Which viability reading was recorded for the compound CC(=O)Nc1cccc(NC(=O)CSc2nnnn2C)c1 ? 115% (inactive)

Which viability reading was recorded for the compound COc1ccc(N=C2C(=O)Nc3ccccc32)cc1 ? 66.7% (inactive)

Which viability reading was recorded for the compound CN1CCN(C(=O)c2ccccc2N(Cc2ccccc2)S(C)(=O)=O)CC1 ? 93.3% (inactive)

Which viability reading was recorded for the compound CCOC(=O)C1CSC(CC(=O)Nc2ccc(Cl)cc2)C(=O)N1 (configuration not stated) ? 111% (inactive)

Which viability reading was recorded for the compound NC(=O)c1oc2ccc(Cl)cc2c1NC(=O)CN1CCOCC1 ? 85.3% (inactive)

Which viability reading was recorded for the compound Cc1c(C=NCCOCc2ccccc2)cnn1C ? 109% (inactive)

====

Could you please report measured viability for the items listed next?
# Assay Method Text: HUVEC growth inhibition – cell-based, human, primary screen (AID 575);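 also: 100% = median of untreated cell wells with 0.1% DMSO on each plate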
# Experimental Parameters: HUVEC proliferation, CellTiter-Glo luminescence, 72 h; at 10 µM; stronger effect = lower value
Write the value in % as a bare number.

Which viability reading was recorded for the molecule Cc1cc(C)n(Cc2nc3ccccc3n2C)n1 ? 92.9

Which viability reading was recorded for the molecule CCC(C(=O)OCCN(CC)CC)c1ccccc1 (stereo unspecified) ? 86.8

Which viability reading was recorded for the molecule CC(=O)N=c1sc(S(N)(=O)=O)nn1C ? 77.6

Which viability reading was recorded for the molecule Cc1cc(CN2CCN(CCC#N)CC2)c(O)c(C2(C)CCCCC2)c1 ? 54.2

Which viability reading was recorded for the molecule O=C(CN1C(=O)COCC1=O)N1CCOCC1 ? 104

Which viability reading was recorded for the molecule COc1ccc(C(=O)Nc2ccc(S(=O)(=O)Nc3onc(C)c3C)cc2)cc1 ? 108

Which viability reading was recorded for the molecule CCc1nc(SCC(=O)NCc2ccco2)c2c3c(sc2n1)CCCC3 ? 78.8

Which viability reading was recorded for the molecule COc1ccc(S(=O)(=O)NC(C)C(=O)Nc2cccc(C(C)=O)c2)cc1 (stereo unspecified) ? 114

Which viability reading was recorded for the molecule OCC(O)CN1CCN(c2ccccc2)CC1 (stereo unspecified) ? 100

Which viability reading was recorded for the molecule N#CC1=C(SCC(=O)NC23CC4CC(CC(C4)C2)C3)NC(=O)C(C#N)C12CCCCC2 (stereo unspecified) ? 54.1

Which viability reading was recorded for the molecule CC1(C)CC(=O)C2=C(C1)N(CC1CCCO1)C(=O)C2(O)C(F)(F)F (stereo unspecified) ? 97.5

// provenance: PubChem BioAssay
